Assay: Plasma concentration in Beagle dog at 10 mg/kg, po after 2 hrs
Format: ADME, organism-based, Canis lupus familiaris
Design: dose 10 mg/kg, route oral
Parameter Measured: concentration at 2 h (µg/mL)
Kindly provide the numeric value in µg/mL only, without the unit symbol.

INPUT: Entry Cc1c(N2[C@@H]3CC[C@H]2C[C@@](C)(O)C3)ccc(C#N)c1Cl : reported concentration at 2 h = ?
OUTPUT: 0.27

====

Experiment: Plasma concentration in Sprague-Dawley rat at 10 mg/kg, po after 10 mins
Type: ADME, organism-based
Parameters: dose 10 mg/kg, route oral
Parameter Measured: concentration at 10 min (ng/mL)
The answer is to be given in ng/mL; state only the numeric part.

INPUT: Can you share its concentration at 10 min? I mean this molecule: Cc1c(N2[C@@H]3CC[C@H]2C[C@@](C)(O)C3)ccc(C#N)c1Cl
OUTPUT: 148

====

Test: Plasma concentration in Beagle dog at 10 mg/kg, po after 1 hrs
Type: ADME, organism-based, Canis lupus familiaris
Design: dose 10 mg/kg, route oral
Parameter Measured: concentration at 1 h
In your response, put the unit directly after the numeric value.

INPUT: Would you mind telling me what concentration at 1 h value was observed for Cc1c(N2[C@@H]3CC[C@H]2C[C@@](C)(O)C3)ccc(C#N)c1Cl ?
OUTPUT: 408 ng/mL

====

Target: UniProtKB P19091
Sequence (P19091 whole entry): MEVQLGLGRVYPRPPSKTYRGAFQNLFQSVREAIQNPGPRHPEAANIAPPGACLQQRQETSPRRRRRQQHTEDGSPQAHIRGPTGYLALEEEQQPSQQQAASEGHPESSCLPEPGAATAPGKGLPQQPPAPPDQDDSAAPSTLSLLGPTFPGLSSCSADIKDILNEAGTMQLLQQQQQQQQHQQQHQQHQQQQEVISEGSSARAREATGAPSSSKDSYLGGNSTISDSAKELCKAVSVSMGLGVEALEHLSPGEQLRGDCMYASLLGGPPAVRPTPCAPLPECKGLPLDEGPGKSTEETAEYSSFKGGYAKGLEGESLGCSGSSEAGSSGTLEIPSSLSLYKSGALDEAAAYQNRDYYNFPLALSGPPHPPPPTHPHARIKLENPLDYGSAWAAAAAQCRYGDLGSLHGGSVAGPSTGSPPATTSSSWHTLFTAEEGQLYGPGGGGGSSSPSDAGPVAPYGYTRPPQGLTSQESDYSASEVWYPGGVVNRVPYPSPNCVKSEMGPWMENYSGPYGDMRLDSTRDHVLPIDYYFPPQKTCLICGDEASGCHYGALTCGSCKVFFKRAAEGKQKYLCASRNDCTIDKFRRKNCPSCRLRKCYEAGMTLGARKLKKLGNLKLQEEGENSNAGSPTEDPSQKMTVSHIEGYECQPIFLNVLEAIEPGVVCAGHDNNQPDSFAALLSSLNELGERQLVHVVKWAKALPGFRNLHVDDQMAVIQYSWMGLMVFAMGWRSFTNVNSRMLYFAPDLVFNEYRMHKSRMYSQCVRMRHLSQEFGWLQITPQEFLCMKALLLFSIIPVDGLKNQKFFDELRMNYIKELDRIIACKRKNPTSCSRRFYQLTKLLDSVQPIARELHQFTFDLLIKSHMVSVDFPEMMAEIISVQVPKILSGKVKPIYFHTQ
Test: Agonist activity at androgen receptor in mouse NIH3T3 cells transiently transfected with beta-galactosidase reporter gene assessed as cellular transformation by R-SAT assay
What EC50 was measured for each of the following?

INPUT: Please state recorded EC50 (tested on UniProtKB P19091) of CO[C@H]1C[C@H]2CC[C@@H](C1)N2c1ccc(C#N)c2ccccc12
OUTPUT: 20 nM

INPUT: API: value(readout=EC50, system=UniProtKB P19091) for record N#Cc1ccc(N2[C@@H]3CC[C@H]2C[C@](O)(C2CC2)C3)c2ccccc12
OUTPUT: 2 nM

INPUT: // map O=[N+]([O-])c1ccc(N2CCCC2)c2ccccc12 to recorded EC50 (system: UniProtKB P19091)
OUTPUT: 6.31 nM

INPUT: Lab note: need EC50 with UniProtKB P19091 for entry N#Cc1ccc(N2[C@@H]3CC[C@H]2C[C@@H](O)C3)c2ccccc12 (stereo in doubt; 8) , please look it up.
OUTPUT: 100 nM

INPUT: Kindly state the measured EC50 obtained for Cc1c(N2[C@@H]3CC[C@H]2C[C@@H](O)C3)ccc([N+](=O)[O-])c1C with UniProtKB P19091.
OUTPUT: 12.6 nM

INPUT: Please provide the recorded EC50 for Cc1c(N2[C@@H]3CC[C@H]2C[C@@](C)(O)C3)ccc(C#N)c1Cl , tested on UniProtKB P19091.
OUTPUT: 1 nM

INPUT: Return EC50 measured with UniProtKB P19091 given this compound: N#Cc1ccc(N2[C@H]3CCC[C@H]2CC3)c2ccccc12
OUTPUT: 3.98 nM

====

Assay: Plasma concentration in Sprague-Dawley rat at 10 mg/kg, po after 480 mins
Assay type: ADME, organism-based
Set-up: dose 10 mg/kg, route oral
Parameter Measured: concentration at 8 h (ng/mL)
API: value field is a number in ng/mL; no unit string.

INPUT: Look at this molecule and give its reported concentration at 8 h. Cc1c(N2[C@@H]3CC[C@H]2C[C@@](C)(O)C3)ccc(C#N)c1Cl
OUTPUT: 253

====

Test: Oral bioavailability in Beagle […] at 10 mg/kg, po
Type: ADME, organism-based, Canis lupus familiaris
Details: in vivo
Parameter Measured: bioavailability (%)
Only the number, expressed in %, is required.

INPUT: Look up bioavailability: Cc1c(N2[C@@H]3CC[C@H]2C[C@@](C)(O)C3)ccc(C#N)c1Cl
OUTPUT: 56

====

Assay: Plasma concentration in Beagle dog at 1 mg/kg, iv after 24 hrs
Format: ADME, organism-based, Canis lupus familiaris
Design: dose 1 mg/kg, route intravenous
Parameter Measured: concentration at 24 h (ng/mL)
Report as a plain number; the unit ng/mL is understood.

INPUT: Looking for the measured concentration at 24 h of Cc1c(N2[C@@H]3CC[C@H]2C[C@@](C)(O)C3)ccc(C#N)c1Cl , can you help?
OUTPUT: 0.3

====

Assay: Oral bioavailability in rat
Assay type: ADME, organism-based
Conditions: in vivo
Parameter Measured: bioavailability (%)
Report as a plain number; the unit % is understood.

INPUT: Requested field: bioavailability. Item: Cc1c(N2[C@@H]3CC[C@H]2C[C@@](C)(O)C3)ccc(C#N)c1Cl
OUTPUT: 38

INPUT: For the compound shown here, C[C@]1(O)C[C@H]2CC[C@@H](C1)N2c1ccc(C#N)c2ccccc12 , give the reported bioavailability.
OUTPUT: 41

====

Assay: Half life in Sprague-Dawley rat at 1 mg/kg, iv
Type: ADME, organism-based
Design: dose 1 mg/kg, route intravenous
Details: in vivo
Parameter Measured: half-life

INPUT: What half-life value was documented for this compound, Cc1c(N2[C@@H]3CC[C@H]2C[C@@](C)(O)C3)ccc(C#N)c1Cl ?
OUTPUT: 2.46 h

====

Experiment: Plasma concentration in Sprague-Dawley rat at 1 mg/kg, iv after 360 mins
Type: ADME, organism-based
Design: dose 1 mg/kg, route intravenous
Parameter Measured: concentration at 6 h (µg/mL)
Dear colleague, please return just the value in µg/mL, with no unit written.

INPUT: Any idea what concentration at 6 h was measured for Cc1c(N2[C@@H]3CC[C@H]2C[C@@](C)(O)C3)ccc(C#N)c1Cl ?
OUTPUT: 0.0235

====

Assay: Plasma concentration in Sprague-Dawley rat at 1 mg/kg, iv after 480 mins
Assay type: ADME, organism-based
Design: dose 1 mg/kg, route intravenous
Parameter Measured: concentration at 8 h (ng/mL)
The reply should contain only the number, in ng/mL.

INPUT: Recorded concentration at 8 h for Cc1c(N2[C@@H]3CC[C@H]2C[C@@](C)(O)C3)ccc(C#N)c1Cl , please?
OUTPUT: 14.9

====

Assay: Volume of distribution at steady state in Beagle dog at 1 mg/kg, iv
Assay type: ADME, organism-based, Canis lupus familiaris
Design: dose 1 mg/kg, route intravenous
Conditions: in vivo, read-out: Vdss
Parameter Measured: Vd (L/kg)
Enter your answer as a number in L/kg; do not include the unit.

INPUT: Record request: Vd value, item Cc1c(N2[C@@H]3CC[C@H]2C[C@@](C)(O)C3)ccc(C#N)c1Cl
OUTPUT: 6.1

====

Assay: Plasma concentration in Sprague-Dawley rat at 10 mg/kg, po after 240 mins
Type: ADME, organism-based
Parameters: dose 10 mg/kg, route oral
Parameter Measured: concentration at 4 h
Mention the unit after the number when you answer.

INPUT: # query: concentration at 4 h of entry Cc1c(N2[C@@H]3CC[C@H]2C[C@@](C)(O)C3)ccc(C#N)c1Cl
OUTPUT: 353 ng/mL

====

Experiment: Plasma concentration in Beagle dog at 10 mg/kg, po after 0.25 hrs
Type: ADME, organism-based, Canis lupus familiaris
Parameters: dose 10 mg/kg, route oral
Parameter Measured: concentration at 0.25 h (ng/mL)
Respond numerically; units are ng/mL and should not be typed.

INPUT: Reported concentration at 0.25 h, compound Cc1c(N2[C@@H]3CC[C@H]2C[C@@](C)(O)C3)ccc(C#N)c1Cl : ____
OUTPUT: 835

====

Test: Plasma concentration in Sprague-Dawley rat at 1 mg/kg, iv after 60 mins
Assay type: ADME, organism-based
Parameters: dose 1 mg/kg, route intravenous
Parameter Measured: concentration at 1 h
Write the figure, then the unit, nothing else.

INPUT: Entry Cc1c(N2[C@@H]3CC[C@H]2C[C@@](C)(O)C3)ccc(C#N)c1Cl has what concentration at 1 h?
OUTPUT: 0.137 µg/mL

====

For each entry below, report its CL value.
System: Liver microsomes
Assay: Metabolic stability in rat liver microsomes assessed as intrinsic clearance
Assay type: ADME, Microsome
Numeric only. Scale: uL/ml.millig

INPUT: Would you kindly share the measured CL for N#Cc1ccc(N2[C@@H]3CC[C@H]2C[C@@H](O)C3)c2ccccc12 (stereo in doubt; 8) ?
OUTPUT: 57

INPUT: Give the measured CL of Cc1c(N2[C@@H]3CC[C@H]2C[C@@H](O)C3)ccc(C#N)c1Cl .
OUTPUT: 214

INPUT: Can you share its CL? I mean this molecule: N#Cc1ccc(N2[C@H]3CCC[C@H]2CC3)c2ccccc12
OUTPUT: 591
